I'd appreciate it if you could supply Blood Concentration values for the items below.
Experimental Protocol: Blood concentration of anesthetics by GC and conversion to MAC-equivalents
Type: in vivo, rabbit
Run Conditions: Infusion (end of 30 min, 10 ml/h i.v. infusion)
One number for each entry, in µM.

Below, each entry is followed by its recorded Blood Concentration result.
Blood Concentration reading for FC(F)OC(F)C(F)(F)F (stereo not shown) : 180

What the record says about `FCOC(C(F)(F)F)C(F)(F)F` : Blood Concentration is 150

Short answer for FC(F)OC(Cl)C(F)(F)F (stereo not shown) : Blood Concentration was 180

Okay, now this molecule:
Entry FC(F)OC(F)(F)C(F)Cl (stereo not shown) — recorded Blood Concentration = 310

Reference source for all entries: patent US7999011B2
